meta.source: PubChem BioAssay AID652154

assay remarks: PAX8 transcriptional activity inhibition in RMG-I – RMG-I cells, luciferase, single concentration, primary screen (AID 652154);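 note: luciferase light reporting Pax8 driven TPO promoter activity; plate controls were median of neutral control wells for no effect and mitoxantrone controls for full effect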
experimental context: RMG-I TPO-luciferase reporter, SteadyGlo, 24 h; at 12.6 µM
Screen size: about 360,000 compounds; about 4,200 (1.2%) were called active.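 Rule for the calls: active = mean replicate inhibition at least 60% with every replicate also reaching 60%; inconclusive = only one of the two criteria is met; inactive = mean below 60% and not all replicates reaching 60%.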 The sample as a whole holds a higher share of actives than the screen did.
Hi! Could you answer with just one of these? active, inactive

Q: Which outcome was entered for the compound `Cc1noc(C)c1S(=O)(=O)N(C)C[C@@H]1OCCCC[C@@H](C)Oc2ccc(NC(=O)Nc3ccccc3)cc2C(=O)N([C@H](C)CO)C[C@@H]1C` in this test?
Ans: inactive

Q: Which outcome was entered for the compound `COc1ccc(C(=O)NC(=S)NNC(=O)c2c(-c3ccccc3)noc2C)cc1` in this test?
Ans: active

Q: Which outcome was entered for the compound `Cc1onc(-c2ccccc2)c1C(=O)NNC(=S)NC(=O)c1ccc(F)cc1` in this test?
Ans: active

Q: Which outcome was entered for the compound `C[C@H](CO)N1C[C@H](C)[C@H](CN(C)C(=O)Nc2ccc3c(c2)OCO3)Oc2ccc(NS(=O)(=O)c3ccc(Cl)cc3)cc2CC1=O` in this test?
Ans: inactive

Q: Which outcome was entered for the compound `Cc1noc(C)c1NC(=O)N(C)C[C@H]1OCCCC[C@H](C)Oc2ccc(NC(=O)Nc3ccccc3)cc2C(=O)N([C@H](C)CO)C[C@@H]1C` in this test?
Ans: inactive

Q: Which outcome was entered for the compound `Cc1onc(-c2ccccc2)c1C(=O)N=C(N)c1ccc(Cl)cc1` in this test?
Ans: inactive

Q: Which outcome was entered for the compound `CCCNC(=O)Nc1ccc2c(c1)C(=O)N(C)C[C@@H](OC)[C@H](C)CN(CCC)[C@@H](C)CO2` in this test?
Ans: inactive

Q: Which outcome was entered for the compound `CC(/C=N/NC(=O)c1cc(-c2ccc3ccccc3c2)n[nH]1)=C\c1ccco1` in this test?
Ans: inactive

---

Please respond with reported inhibition for every item in the list.
assay remarks: PAX8 transcriptional activity inhibition in RMG-I – RMG-I cells, luciferase, single concentration, primary screen (AID 652154)
experimental context: RMG-I TPO-luciferase reporter, SteadyGlo, 24 h; at 12.6 µM; active compounds read high
About 4,200 (1.2%) of roughly 360,000 compounds were called active. The entries come from a sample that favours actives as a whole.
// note: answer is a bare numeric in %

Q: Answer with the recorded inhibition for the compound listed here: `C[C@@H]1CCCCO[C@@H](CN(C)C(=O)Nc2cccc3ccccc23)[C@H](C)CN([C@H](C)CO)C(=O)c2cc(NC(=O)NC3CCCCC3)ccc2O1`
Ans: 34.7

Q: Answer with the recorded inhibition for the compound listed here: `O=S(=O)(NCc1ccccn1)c1ccc(Br)s1`
Ans: -3.1

Q: Answer with the recorded inhibition for the compound listed here: `COCC(=O)Nc1ccc2c(c1)C(=O)N(C)C[C@@H](OC)[C@H](C)CN(C(=O)c1ccccn1)[C@@H](C)CO2`
Ans: 2.92

Q: Answer with the recorded inhibition for the compound listed here: `CCCNC(=O)N[C@@H]1CC[C@@H](CCn2cc(C3CC3)nn2)O[C@@H]1CO`
Ans: 3.4

Q: Answer with the recorded inhibition for the compound listed here: `C[C@@H]1CN([C@@H](C)CO)S(=O)(=O)c2ccc(C3=CCCCC3)cc2O[C@@H]1CN(C)Cc1cccc(C(=O)O)c1`
Ans: -22.5

Q: Answer with the recorded inhibition for the compound listed here: `O=C(C[C@H]1C[C@@H]2c3cc(NC(=O)c4cccnc4)ccc3O[C@@H]2[C@@H](CO)O1)NCc1ccccc1F`
Ans: -5.11

Q: Answer with the recorded inhibition for the compound listed here: `O=C(C[C@@H]1C=C[C@H](NC(=O)Nc2ccccc2F)[C@@H](CO)O1)NCc1ccccc1`
Ans: 1.09

Q: Answer with the recorded inhibition for the compound listed here: `O=C(C1CCC1)N1CCCCN2[C@H](C1)[C@@H](c1ccc(C#CC3CCCC3)cc1)[C@@H]2CO`
Ans: 36.8

---

assay remarks: PAX8 transcriptional activity inhibition in RMG-I – RMG-I cells, luciferase, single concentration, primary screen (AID 652154);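 note: luciferase light reporting Pax8 driven TPO promoter activity; plate controls were median of neutral control wells for no effect and mitoxantrone controls for full effect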
experimental context: RMG-I TPO-luciferase reporter, SteadyGlo, 24 h; at 12.6 µM
Among all 360,000 compounds or so, about 4,200 (1.2%) were called active.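 How the source made its calls: active means mean replicate inhibition at least 60% with every replicate also reaching 60%; inconclusive means only one of the two criteria is met; inactive means mean below 60% and not all replicates reaching 60%.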 Many of the other results were omitted from the sample, so actives are more common in it than they were.
Hi! Could you answer with just one of these? active, inactive

Q: Which outcome was entered for the compound `Cc1ccc(C)c(N2CCN(C(=O)CCCn3c(=O)c4cccn4c4cccnc43)CC2)c1` in this test?
Ans: inactive

Q: Which outcome was entered for the compound `Cc1ccc(C)c(N2CCN(C(=O)CCCCCn3c(=S)[nH]c4ccc(N5CCOCC5)cc4c3=O)CC2)c1` in this test?
Ans: active

Q: Which outcome was entered for the compound `COc1ccc(NC(=O)Nc2ccc3c(c2)[C@@H]2C[C@H](CC(=O)N[C@@H](C)c4ccccc4)O[C@@H](CO)[C@@H]2O3)cc1` in this test?
Ans: inactive

Q: Which outcome was entered for the compound `O=C(CCCCCn1c(=S)[nH]c2cc3c(cc2c1=O)OCO3)N1CCN(c2ccc(F)cc2)CC1` in this test?
Ans: inactive

---

assay remarks: PAX8 transcriptional activity inhibition in RMG-I – RMG-I cells, luciferase, single concentration, primary screen (AID 652154);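 note: luciferase light reporting Pax8 driven TPO promoter activity; plate controls were median of neutral control wells for no effect and mitoxantrone controls for full effect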
experimental context: RMG-I TPO-luciferase reporter, SteadyGlo, 24 h; at 12.6 µM; active compounds read high
Out of some 360,000 compounds screened, about 4,200 (1.2%) were called active. Only a selection was taken, and actives are over-represented in it overall.
test readout: inhibition (%)
// note: answer is a bare numeric in %

Q: Answer with the recorded inhibition for the compound listed here: `O=C(C[C@H]1C=C[C@H](NC(=O)Nc2ccccc2F)[C@@H](CO)O1)NCc1ccc(Cl)cc1`
Ans: -8.13

Q: Answer with the recorded inhibition for the compound listed here: `C[C@H](CO)N1C[C@H](C)[C@H](CN(C)Cc2ccc(Oc3ccccc3)cc2)Oc2c(NC(=O)CCCCCC(=O)Nc3ccccc3N)cccc2C1=O`
Ans: 9.67

Q: Answer with the recorded inhibition for the compound listed here: `Cc1ccc(S(=O)(=O)Nc2ccc3c(c2)CC(=O)N([C@@H](C)CO)C[C@H](C)[C@H](CN(C)Cc2ccccc2)O3)cc1`
Ans: -12.9

Q: Answer with the recorded inhibition for the compound listed here: `O=C(C[C@H]1CC[C@@H]2[C@H](COC[C@@H](O)CN2Cc2cc(F)cc(F)c2)O1)NC1CCC1`
Ans: 4.75

---

assay remarks: PAX8 transcriptional activity inhibition in RMG-I – RMG-I cells, luciferase, single concentration, primary screen (AID 652154);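 note: luciferase light reporting Pax8 driven TPO promoter activity; plate controls were median of neutral control wells for no effect and mitoxantrone controls for full effect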
experimental context: RMG-I TPO-luciferase reporter, SteadyGlo, 24 h; at 12.6 µM; active compounds read high
In all, about 360,000 compounds went through this assay and about 4,200 (1.2%) were called active. The list comes from a sample in which actives are over-represented; it also holds close analogues and randomly drawn compounds.
Please respond with reported inhibition for every item in the list.
// note: answer is a bare numeric in %

Q: Answer with the recorded inhibition for the molecule listed here: `Cn1cnc(S(=O)(=O)N2C[C@H](O)COC[C@@H]3O[C@H](CC(=O)NC4CCCC4)CC[C@H]32)c1`
Ans: -34

Q: Answer with the recorded inhibition for the molecule listed here: `O=C(C1CCC1)N1CCCCN2[C@H](CO)[C@H](c3ccc(-c4cccc(F)c4)cc3)[C@H]2C1`
Ans: 84.3

Q: Answer with the recorded inhibition for the molecule listed here: `OC[C@@H]1[C@@H](c2ccc(-c3ccccc3F)cc2)[C@@H]2CN(Cc3cncnc3)CCCCN12`
Ans: 4.63

Q: Answer with the recorded inhibition for the molecule listed here: `CN(C)CC#Cc1ccc([C@@H]2[C@H](CO)N3CCCCN(C(=O)NC4CCCC4)C[C@@H]23)cc1`
Ans: 6.59

Q: Answer with the recorded inhibition for the molecule listed here: `O=C(C(=O)N1CCC(CNS(=O)(=O)Cc2ccccc2)CC1)c1cc2ccccc2o1`
Ans: 10

Q: Answer with the recorded inhibition for the molecule listed here: `COc1ccc(CNC(=O)CN2C(=O)c3ccccc3S2(=O)=O)cc1`
Ans: 75.6

Q: Answer with the recorded inhibition for the molecule listed here: `CN(C)C(=O)C[C@@H]1CC[C@@H](NC(=O)NC2CCCC2)[C@@H](CO)O1`
Ans: -11

Q: Answer with the recorded inhibition for the molecule listed here: `O=C(Nc1ccccc1F)N1CC(=O)N2[C@H](C1)[C@@H](c1ccc(C#CC3CC3)cc1)[C@@H]2CO`
Ans: -14.6

Q: Answer with the recorded inhibition for the molecule listed here: `C[C@H](NC(=O)C[C@@H]1CC[C@@H]2[C@H](COC[C@@H](O)CN2C(=O)Nc2cc(Cl)cc(Cl)c2)O1)c1ccccc1`
Ans: 49.2

Q: Answer with the recorded inhibition for the molecule listed here: `COc1cccc(S(=O)(=O)N[C@@H]2CC[C@H](CCNC(=O)Cc3ccncc3)O[C@@H]2CO)c1`
Ans: -23.7

Q: Answer with the recorded inhibition for the molecule listed here: `C=CCn1c(C)cc(C2=NNC(=NCC)SC2)c1C`
Ans: 107

Q: Answer with the recorded inhibition for the molecule listed here: `NS(=O)(=O)c1ccc(CCNC(=O)CN2C(=O)c3ccccc3S2(=O)=O)cc1`
Ans: 0.854

Q: Answer with the recorded inhibition for the molecule listed here: `Cc1noc(C)c1S(=O)(=O)Nc1ccc2c(c1)C(=O)N([C@@H](C)CO)C[C@@H](C)[C@@H](CN(C)Cc1ccccc1)OCCCC[C@H](C)O2`
Ans: 27.1

Q: Answer with the recorded inhibition for the molecule listed here: CC=Cc1ccc2n(c1=O)C[C@@H]1[C@@H](CO)[C@H](C(=O)NCC(F)(F)F)N(CCc3ccccc3)[C@H]21 (mixture of isomers)
Ans: 5.7

Q: Answer with the recorded inhibition for the molecule listed here: `COc1cccc(/C=N/Nc2cc(C)nc(-c3ccccc3O)n2)c1O`
Ans: 90.5

Q: Answer with the recorded inhibition for the molecule listed here: `O=C(C1CCCC1)N1CC(=O)N2[C@H](CO)[C@H](c3ccc(Br)cc3)[C@H]2C1`
Ans: -9.22

Q: Answer with the recorded inhibition for the molecule listed here: `O=C(C1CCCC1)N1CCCCN2[C@@H](CO)[C@H](c3ccc(-c4cccc(F)c4)cc3)[C@@H]2C1`
Ans: 6.9
